Numbers sourced from patent US20210130436A1.

- testedTarget: T1, CD28 (endogenously expressed on Jurkat/IL2 reporter cells) (human, UniProt P10747 19-220)
- T1 construct: Endogenous CD28 of Jurkat cells; also called human CD28
- assayExplanation: flow cytometry, Jurkat/IL2 reporter cells (endogenous CD28), PE anti-human Fc
endpointLabel: MFI at 33.3 nM (MFI)

Here's what some known entries look like.
>  <binder>
variant CD80 IgV-Fc Q33L/E35D/M47I/T62N/L85Q (Fc fusion, not shown: a dimerising Fc or GST) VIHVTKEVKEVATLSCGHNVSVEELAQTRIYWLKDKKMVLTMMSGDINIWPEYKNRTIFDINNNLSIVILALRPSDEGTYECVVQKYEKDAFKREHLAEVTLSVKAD

>  <displayUnit>
MFI

>  <MFI at 33.3 nM>
284

$$$$
>  <binder>
variant CD80 IgV-Fc H18Y/A26E/Q33L/E35D/M47L/L85Q (Fc fusion, not shown: a dimerising Fc or GST) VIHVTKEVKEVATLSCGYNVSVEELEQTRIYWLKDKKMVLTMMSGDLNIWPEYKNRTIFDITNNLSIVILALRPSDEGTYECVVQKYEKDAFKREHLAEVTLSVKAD

>  <displayUnit>
MFI

>  <MFI at 33.3 nM>
272

$$$$

[I] variant CD80 IgV-Fc A26E/Q33L/E35D/M47L (Fc fusion, not shown: a dimerising Fc or GST) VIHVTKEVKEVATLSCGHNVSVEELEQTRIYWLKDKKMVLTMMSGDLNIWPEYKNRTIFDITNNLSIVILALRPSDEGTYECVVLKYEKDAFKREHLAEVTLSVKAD
[II] variant CD80 IgV-Fc H18Y/E35D/M47L (Fc fusion, not shown: a dimerising Fc or GST) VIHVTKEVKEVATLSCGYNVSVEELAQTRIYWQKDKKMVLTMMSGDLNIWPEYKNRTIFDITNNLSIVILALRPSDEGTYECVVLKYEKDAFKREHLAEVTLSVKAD
[III] variant CD80 IgV-Fc E35D/M47L/L85Q (Fc fusion, not shown: a dimerising Fc or GST) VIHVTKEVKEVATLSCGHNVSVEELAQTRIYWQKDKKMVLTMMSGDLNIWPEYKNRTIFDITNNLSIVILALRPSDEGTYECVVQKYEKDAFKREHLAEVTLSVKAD
[in] Arrange the 3 binders by rising MFI at 33.3 nM, starting with the smallest. Enter labels, ranked according to the request.
[out] I, III, II
